Data credit: the RepoRT retention time repository

Test method notes: HILIC, HILICON iHILIC-(P) Classic, HILIC, PEEK, 50 × 2.1 mm, 5 µm, 30 °C, 0.12 mL/min, estimated dead time 0.92 min; A: water + 20 mM ammonium carbonate + 10 mM ammonium hydroxide; B: acetonitrile; gradient (min/%B) 0/90 1/90 21/20 21.5/20 23.5/20 24.5/90 26/90 26.5/90
Experimental setup: stereoisomer not certain
Metric: LC retention time (min)

> print(dat)
                                   molecule             metric  meas.value
1     O=C(CO)COP(=O)(O)O [Triose phosphate]  LC retention time        10.9
2  Nc1ncnc2c1ncn2C1OC(COP(=O)(O)OP(=O)(O)O)C(O)C1O (centres undefined)  LC retention time        12.3
3  O=P(O)(O)OCC(O)CO (centres undefined) [Glycerol-3-phosphate]  LC retention time        10.9
4      CC(C)CC(N)C(=O)O (centres undefined)  LC retention time        5.52
5  CC(=O)SCCNC(=O)CCNC(=O)C(O)C(C)(C)COP(=O)(O)OP(=O)(O)OCC1OC(n2cnc3c(N)ncnc32)C(O)C1OP(=O)(O)O (centres undefined)  LC retention time        8.53
6  Nc1nc2c(ncn2C2OC(COP(=O)(O)O)C(O)C2O)c(=O)[nH]1 (centres undefined)  LC retention time        14.2

[A] Nc1ncnc2c1ncn2C1OC(COP(=O)(O)OP(=O)(O)OP(=O)(O)O)C(O)C1O (centres undefined)
[B] NC(Cc1c[nH]c2ccccc12)C(=O)O (centres undefined)
[C] CC(O)C(=O)O (centres undefined)
// ranking: key=LC retention time, reverse=True Provide the labels, sequenced as the question asks.
A, B, C
(A: 13.5 min, B: 6.14 min, C: 3.24 min)
